System: A549
Assay: Effective dose on human lung carcinoma (A549) cells
Format: functional
Settings: read-out: ED50 (the source's name)
Record form. Attribute: pEC50. Fill in for each entry.
One number for each entry, as −log10 of the molar value.

Known pEC50 results, listed for orientation:
## Task Value lookup for pEC50; key = COc1cc([C@@H]2c3cc4c(cc3[C@@H](O[C@@H]3O[C@@H]5CO[C@@H](C)O[C@H]5[C@H](O)[C@H]3O)[C@H]3COC(=O)[C@H]23)OCO4)cc(OC)c1O [ETOPOSIDE]
## Result 5.47

## Task Value lookup for pEC50; key = COC1=C[C@]2(C)C3=CC[C@]4(C)[C@@H]([C@H](C)CC[C@@H](O)C(C)(C)O)CC[C@]4(C)C3CCC2C(C)(C)C1=O (stereo partly specified)
## Result 4.53

## Task Value lookup for pEC50; key = C[C@H](CC[C@@H](O)C(C)(C)O)[C@H]1CC[C@]2(C)C3CCC4C(C)(C)C(=O)C(C#N)=C[C@]4(C)C3=CC[C@]12C (stereo partly specified)
## Result 4.59

I'm hoping you can list pEC50 for every molecule here, please.
1. C[C@H](CC[C@@H](O)C(C)(C)O)[C@H]1CC[C@]2(C)C3CCC4C(C)(C)C(=O)C(Cl)=C[C@]4(C)C3=CC[C@]12C (stereo partly specified)
2. C[C@H](CC[C@@H](O)C(C)(C)O)[C@H]1CC[C@]2(C)C3CCC4C(C)(C)C(=O)C=C[C@]4(C)C3=CC[C@]12C (stereo partly specified)
3. C[C@H](CC[C@@H](O)C(C)(C)O)[C@H]1CC[C@]2(C)C3CCC4C(C)(C)C(=O)C(C(=O)O)=C[C@]4(C)C3=CC[C@]12C (stereo partly specified)

## Result
1: 4.42; 2: 4.57; 3: 5.13

----------
Target: DNA topoisomerase II (Homo sapiens, UniProt P11388+Q02880)
Experiment: Inhibitory concentration against human DNA topoisomerase II
Format: protein assay
endpoint label: IC50 (µM)
Answers are plain numbers, in µM.

Known IC50 results, listed for orientation:
## Task Value lookup for IC50; key = COC1=C[C@]2(C)C3=CC[C@]4(C)[C@@H]([C@H](C)CC[C@@H](O)C(C)(C)O)CC[C@]4(C)C3CCC2C(C)(C)C1=O (stereo partly drawn)
## Result 22.7

## Task Value lookup for IC50; key = C[C@H](CC[C@@H](O)C(C)(C)O)[C@H]1CC[C@]2(C)C3CCC4C(C)(C)C(=O)C(C=O)=C[C@]4(C)C3=CC[C@]12C (stereo partly drawn)
## Result 1.86

## Task Value lookup for IC50; key = C[C@H](CC[C@@H](O)C(C)(C)O)[C@H]1CC[C@]2(C)C3CCC4C(C)(C)C(=O)C(C#N)=C[C@]4(C)C3=CC[C@]12C (stereo partly drawn)
## Result 83.23

I'm hoping you can list IC50 for every molecule here, please.
1. COC(=O)C1=C[C@]2(C)C3=CC[C@]4(C)[C@@H]([C@H](C)CC[C@@H](O)C(C)(C)O)CC[C@]4(C)C3CCC2C(C)(C)C1=O (stereo partly drawn)
2. C[C@H](CC[C@@H](O)C(C)(C)O)[C@H]1CC[C@]2(C)C3CCC4C(C)(C)C(=O)C=C[C@]4(C)C3=CC[C@]12C (stereo partly drawn)
3. C[C@H](CC[C@@H](O)C(C)(C)O)[C@H]1CC[C@]2(C)C3CCC4C(C)(C)C(=O)C(C(=O)O)=C[C@]4(C)C3=CC[C@]12C (stereo partly drawn)
4. C[C@H](CC[C@@H](O)C(C)(C)O)[C@H]1CC[C@]2(C)C3CCC4C(C)(C)C(=O)C(Cl)=C[C@]4(C)C3=CC[C@]12C (stereo partly drawn)
5. C[C@H](CC[C@@H](O)C(C)(C)O)[C@H]1CC[C@]2(C)C3CCC4C(C)(C)C(=O)C(Br)=C[C@]4(C)C3=CC[C@]12C (stereo partly drawn)

## Result
1: 66.51; 2: 149.97; 3: 23.8; 4: 106.8; 5: 18.27
